biological target: Neu5Ac(a2-3)Gal(b1-4)[Fuc(a1-3)]GlcNAc(b1-6)[Gal(b1-3)]GalNAc; assay: glycan array binding signal (z-score within array); higher = stronger binding; details: glycan notation: IUPAC condensed, linker removed
The sample as a whole holds a higher share of the strongest signals than the screen did.
Measured glycan array binding signal (z-score) by item
Lab note: write the figure by itself, no unit.

• Epa12 (Candida glabrata) (protein) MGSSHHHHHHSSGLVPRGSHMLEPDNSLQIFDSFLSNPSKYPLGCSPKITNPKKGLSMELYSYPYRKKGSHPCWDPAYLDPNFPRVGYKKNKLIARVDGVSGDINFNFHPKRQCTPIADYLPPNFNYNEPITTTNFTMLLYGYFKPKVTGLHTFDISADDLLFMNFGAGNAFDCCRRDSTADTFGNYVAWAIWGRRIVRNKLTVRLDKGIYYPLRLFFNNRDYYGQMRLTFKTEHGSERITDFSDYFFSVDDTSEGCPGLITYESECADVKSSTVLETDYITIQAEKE = -0.245

Below: the item to evaluate.
Short answer for Epa9 (Candida glabrata), CAGL0A01386g (protein) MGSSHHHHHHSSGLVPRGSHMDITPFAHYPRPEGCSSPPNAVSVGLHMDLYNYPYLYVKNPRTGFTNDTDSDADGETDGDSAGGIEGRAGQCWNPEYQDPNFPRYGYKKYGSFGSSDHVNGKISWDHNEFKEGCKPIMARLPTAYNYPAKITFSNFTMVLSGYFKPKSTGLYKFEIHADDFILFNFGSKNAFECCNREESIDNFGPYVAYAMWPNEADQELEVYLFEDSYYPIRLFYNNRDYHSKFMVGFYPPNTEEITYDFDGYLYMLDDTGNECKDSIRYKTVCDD : glycan array binding signal (z-score) was -0.217
